- target.entity: Delta-type opioid receptor (Homo sapiens)
- Sequence (P41143 whole entry): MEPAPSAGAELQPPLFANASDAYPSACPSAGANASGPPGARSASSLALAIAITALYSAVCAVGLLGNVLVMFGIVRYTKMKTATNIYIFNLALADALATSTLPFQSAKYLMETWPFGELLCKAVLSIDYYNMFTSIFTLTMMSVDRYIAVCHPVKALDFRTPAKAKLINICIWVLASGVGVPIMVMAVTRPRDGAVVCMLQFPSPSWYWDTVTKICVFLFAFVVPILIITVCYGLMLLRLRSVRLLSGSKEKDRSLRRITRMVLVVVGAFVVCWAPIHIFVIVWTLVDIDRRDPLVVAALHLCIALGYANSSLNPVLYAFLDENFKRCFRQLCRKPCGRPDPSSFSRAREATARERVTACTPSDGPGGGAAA
- protocol.notes: Inhibition of [3H]diprenorphine binding to human cloned delta opioid receptor expressed in CHO cells at 10 uM
- Format: cell-based
reported.metric: inhibition (%)
Numbers only, in %.

Example entries and their recorded answers appear below.
COC(=O)c1cccc([C@]2(C)C[C@@H]3CN(Cc4ccccc4)[C@@H](c4ccccc4)CN3C[C@@H]2C)c1 = 39
C[C@H]1CN2C[C@H](c3ccccc3)N(Cc3ccccc3)C[C@H]2C[C@@]1(C)c1ccccc1 = 26
C[C@H]1CN2CCNC[C@H]2C[C@@]1(C)c1cccc(O)c1 = 35

For each entry beneath this line, provide reported inhibition.
1. C[C@H]1CN2CCN(Cc3cccc(OCc4ccccc4)c3)C[C@H]2C[C@@]1(C)c1cccc(O)c1
2. CC(=O)N1C[C@H]2C[C@@](C)(c3cccc(O)c3)[C@@H](C)CN2C[C@@H]1c1ccccc1
3. COC(=O)c1cccc(CN2CCN3C[C@H](C)[C@](C)(c4cccc(O)c4)C[C@@H]3C2)c1

Output:
[43, 57, 43]

###

- target.entity: Mu-type opioid receptor (Homo sapiens)
- Sequence (P35372 whole entry): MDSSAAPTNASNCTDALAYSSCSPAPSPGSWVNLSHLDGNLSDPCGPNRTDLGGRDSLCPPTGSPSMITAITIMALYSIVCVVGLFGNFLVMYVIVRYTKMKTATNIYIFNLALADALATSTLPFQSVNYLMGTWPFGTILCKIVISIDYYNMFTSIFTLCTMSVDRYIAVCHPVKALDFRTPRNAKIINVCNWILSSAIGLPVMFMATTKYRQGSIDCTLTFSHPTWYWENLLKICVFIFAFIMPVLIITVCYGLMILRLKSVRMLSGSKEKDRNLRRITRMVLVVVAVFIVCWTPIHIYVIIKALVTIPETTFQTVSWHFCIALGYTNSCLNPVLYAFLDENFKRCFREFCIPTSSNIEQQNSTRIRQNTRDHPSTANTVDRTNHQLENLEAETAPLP
- protocol.notes: Antagonist activity assessed as inhibition of loperamide-stimulated [35S]GTPgammaS binding to human mu opioid receptor expressed in CHO cells
- Format: functional, cell-based
reported.metric: log10 IC50 (log10 of the value in µM)
Record value = log10 of IC50 given in µM.

Recorded log10 IC50, per entry:
C[C@H]1CN2CCN(C(=O)c3ccccc3)C[C@H]2C[C@@]1(C)c1cccc(O)c1 = -2.68
C[C@H]1CN2CCN(Cc3ccnc4ccccc34)C[C@H]2C[C@@]1(C)c1cccc(O)c1 = -1.10
C[C@H]1CN2CCN(CCc3ccccc3)C[C@H]2C[C@@]1(C)c1cccc(O)c1 = -2.70
C[C@H]1CN2CCN(C(=O)CCc3ccccc3)C[C@H]2C[C@@]1(C)c1cccc(O)c1 = -1.11
C[C@H]1CN2CCN(CC3CCCCC3)C[C@H]2C[C@@]1(C)c1cccc(O)c1 = -2.96

I need log10 IC50 for every entry listed below, if you could help.
1. C[C@H]1CN2C[C@@H](Cc3ccccc3)NC[C@H]2C[C@@]1(C)c1cccc(O)c1
2. C[C@H]1CN2C[C@H](c3ccccc3)NC[C@H]2C[C@@]1(C)c1cccc(C(N)=O)c1
3. C[C@H]1CN2CCN(C(=O)Cc3ccccc3)C[C@H]2C[C@@]1(C)c1cccc(O)c1
4. C[C@H]1CN2CCN(Cc3cccc(Oc4ccccc4)c3)C[C@H]2C[C@@]1(C)c1cccc(O)c1
5. C[C@H]1CN2CCN(Cc3ccncc3)C[C@H]2C[C@@]1(C)c1cccc(O)c1
6. C[C@H]1CN2CCN(Cc3cccc(OCc4ccccc4)c3)C[C@H]2C[C@@]1(C)c1cccc(O)c1

Output:
-1.66
-2.82
-2.17
-2.01
-1.74
-1.66

Batch: log10 IC50 for all items listed.
1. C[C@H]1CN2C[C@H](Cc3ccccc3)NC[C@H]2C[C@@]1(C)c1cccc(O)c1
2. CC(=O)N1C[C@H]2C[C@@](C)(c3cccc(O)c3)[C@@H](C)CN2C[C@@H]1c1ccccc1
3. C[C@H]1CN2CCN(Cc3cccc4ccccc34)C[C@H]2C[C@@]1(C)c1cccc(O)c1
4. C[C@H]1CN2CCN(Cc3ccc(N(C)C)cc3)C[C@H]2C[C@@]1(C)c1cccc(O)c1
5. Cc1ccccc1CN1CCN2C[C@H](C)[C@](C)(c3cccc(O)c3)C[C@@H]2C1
6. C[C@H]1CN2CCN(Cc3ccccn3)C[C@H]2C[C@@]1(C)c1cccc(O)c1
7. C[C@H]1CN2CCN(c3ccccc3)C[C@H]2C[C@@]1(C)c1cccc(O)c1
8. C[C@H]1CN2CCN(Cc3ccoc3)C[C@H]2C[C@@]1(C)c1cccc(O)c1

Output:
[-2.55, -0.66, -1.80, -0.72, -2.74, -1.89, -1.27, -2.21]
